- System: 422866-222-R5-J1-PDC complex spheroids viability
- assay_details: Anticancer human tumor 422866-222-R5-J1-PDC patient-derived pancreatic adenocarcinoma cell line growth inhibition [RAS]
- test_conditions: second compound 0.0316 µM; first compound 10 µM; active compounds read low
value_kind: viability, T/C (%)
The response must be a number in % with no trailing unit.

CC1(O)CCCC1n1c(=O)c(C(F)F)cc2cnc(NC3CCN(S(C)(=O)=O)CC3)nc21 (stereo not given) + C=CC(=O)N1CCN(c2nc(OCC3CCCN3C)nc3c(F)c(-c4nc(N)cc(C)c4C(F)(F)F)c(Cl)cc23)C(C)C1    24.9

// viability, T/C lookup, compound = Cc1nc(N2CCC3(CC2)COC(C)C3N)c(CO)nc1Sc1ccnc(N)c1Cl (stereo not given) + C=CC(=O)N1CCN(c2nc(OCC3CCCN3C)nc3c(F)c(-c4nc(N)cc(C)c4C(F)(F)F)c(Cl)cc23)C(C)C1 , result: 17.7

// viability, T/C lookup, compound = CCC(CC)c1cc(NC2CCC(N)C2)n2nccc2n1 (stereo not given) + C#Cc1c(F)ccc2cc(O)cc(-c3ncc4c(N5CC6CCC(C5)N6)nc(OCC56CCCN5CC(F)C6)nc4c3F)c12 , result: 36.2

// viability, T/C lookup, compound = C[C@@H](NC(=O)c1ncnc(N)c1Cl)c1ncc(C(=O)Nc2cc(C(F)(F)F)c(Cl)cn2)s1 + C=CC(=O)N1CCN(c2nc(OCC3CCCN3C)nc3c(F)c(-c4nc(N)cc(C)c4C(F)(F)F)c(Cl)cc23)C(C)C1 , result: 26.7

// viability, T/C lookup, compound = NC1c2ccccc2OC12CCN(c1cnc3c(N4CCCc5ncccc54)n[nH]c3n1)CC2 (stereo not given) + C#Cc1c(F)ccc2cc(O)cc(-c3ncc4c(N5CC6CCC(C5)N6)nc(OCC56CCCN5CC(F)C6)nc4c3F)c12 , result: 23.6

====

- Test system: 422866-222-R5-J1-PDC complex spheroids viability
- assay_details: Anticancer human tumor 422866-222-R5-J1-PDC cell line growth inhibition [RAS];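 further: spheroids exposed to compounds for 7 days; 100% = DMSO vehicle control viability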
- test_conditions: second compound 0.000949 µM; first compound 0.0316 µM; active compounds read low
value_kind: viability, T/C

Previously resolved entries follow.
NC1c2ccccc2OC12CCN(c1cnc3c(N4CCCc5ncccc54)n[nH]c3n1)CC2 (centres undefined) + CCn1c(-c2cc(N3CCN(C)CC3)cnc2C(C)OC)c2c3cc(ccc31)-c1csc(n1)CC(NC(=O)C1CC1C)C(=O)N1CCCC(N1)C(=O)OCC(C)(C)C2    20.1%
CCN1CCN(Cc2ccc(Nc3ncc(F)c(-c4cc(F)c5nc(C)n(C(C)C)c5c4)n3)nc2)CC1 + CCn1c(-c2cc(N3CCN(C)CC3)cnc2C(C)OC)c2c3cc(ccc31)-c1csc(n1)CC(NC(=O)C1CC1C)C(=O)N1CCCC(N1)C(=O)OCC(C)(C)C2    26.8%
O=C(c1ccc(F)c(F)c1Nc1ccc(I)cc1F)N1CC(O)([C@@H]2CCCCN2)C1 + CCn1c(-c2cccnc2C(C)OC)c2c3cc(ccc31)N1CCOC(CC(NC(=O)C(C(C)C)N(C)C(=O)C3(F)CCN(C(=O)C#CC(C)(C)N(C)C)CC3)C(=O)N3CCCC(N3)C(=O)OCC(C)(C)C2)C1    21.4%

Here is another compound to look at.
// viability, T/C lookup, compound = CC(C)NCC(C(=O)N1CCN(c2ncnc3c2C(C)CC3O)CC1)c1ccc(Cl)cc1 (centres undefined) + CCn1c(-c2cccnc2C(C)OC)c2c3cc(ccc31)N1CCOC(CC(NC(=O)C(C(C)C)N(C)C(=O)C3(F)CCN(C(=O)C#CC(C)(C)N(C)C)CC3)C(=O)N3CCCC(N3)C(=O)OCC(C)(C)C2)C1 , result: 23%

====

- Tested on: 422866-222-R5-J1-PDC complex spheroids viability
- assay_details: Anticancer human tumor 422866-222-R5-J1-PDC cell line growth inhibition [RAS];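 further: spheroids exposed to compounds for 7 days; 100% = DMSO vehicle control viability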
- test_conditions: second compound 0.0949 µM; first compound 1 µM; active compounds read low
value_kind: viability, T/C (%)
The response must be a number in % with no trailing unit.

C=CC(=O)N1CCN(c2nc(OCC3CCCN3C)nc3c(F)c(-c4nc(N)cc(C)c4C(F)(F)F)c(Cl)cc23)C(C)C1 (centres undefined) + CCn1c(-c2cccnc2C(C)OC)c2c3cc(ccc31)N1CCOC(CC(NC(=O)C(C(C)C)N(C)C(=O)C3(F)CCN(C(=O)C#CC(C)(C)N(C)C)CC3)C(=O)N3CCCC(N3)C(=O)OCC(C)(C)C2)C1    21.3

// viability, T/C lookup, molecule = C=CC(=O)N1CCN(c2nc(OCC3CCCN3C)nc3c(F)c(-c4nc(N)cc(C)c4C(F)(F)F)c(Cl)cc23)C(C)C1 (centres undefined) + CCn1c(-c2cc(N3CCN(C)CC3)cnc2C(C)OC)c2c3cc(ccc31)-c1csc(n1)CC(NC(=O)C1CC1C)C(=O)N1CCCC(N1)C(=O)OCC(C)(C)C2 , result: 21.5

// viability, T/C lookup, molecule = C=CC(=O)Nc1cc(Nc2nccc(-c3cn(C)c4ccccc34)n2)c(OC)cc1N(C)CCN(C)C + CCn1c(-c2cccnc2C(C)OC)c2c3cc(ccc31)N1CCOC(CC(NC(=O)C(C(C)C)N(C)C(=O)C3(F)CCN(C(=O)C#CC(C)(C)N(C)C)CC3)C(=O)N3CCCC(N3)C(=O)OCC(C)(C)C2)C1 , result: 13.1

// viability, T/C lookup, molecule = C=CC(=O)Nc1cc(Nc2nccc(-c3cn(C)c4ccccc34)n2)c(OC)cc1N(C)CCN(C)C + CCn1c(-c2cc(N3CCN(C)CC3)cnc2C(C)OC)c2c3cc(ccc31)-c1csc(n1)CC(NC(=O)C1CC1C)C(=O)N1CCCC(N1)C(=O)OCC(C)(C)C2 , result: 18.7

====

- System: 422866-222-R5-J1-PDC complex spheroids viability
- assay_details: Anticancer human tumor 422866-222-R5-J1-PDC cell line growth inhibition [RAS];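 further: spheroids exposed to compounds for 7 days; 100% = DMSO vehicle control viability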
- test_conditions: second compound 1 µM; first compound 3.16 µM; active compounds read low
value_kind: viability, T/C (%)
The response must be a number in % with no trailing unit.

Previously resolved entries follow.
Cc1nc(N2CCC3(CC2)COC(C)C3N)c(CO)nc1Sc1ccnc(N)c1Cl (configuration not stated) + C#Cc1c(F)ccc2cc(O)cc(-c3ncc4c(N5CC6CCC(C5)N6)nc(OCC56CCCN5CC(F)C6)nc4c3F)c12    24.5
CC1(O)CCCC1n1c(=O)c(C(F)F)cc2cnc(NC3CCN(S(C)(=O)=O)CC3)nc21 (configuration not stated) + C=CC(=O)N1CCN(c2nc(OCC3CCCN3C)nc3c(F)c(-c4nc(N)cc(C)c4C(F)(F)F)c(Cl)cc23)C(C)C1    30.6

// viability, T/C lookup, compound = NC1c2ccccc2OC12CCN(c1cnc3c(N4CCCc5ncccc54)n[nH]c3n1)CC2 (configuration not stated) + C=CC(=O)N1CCN(c2nc(OCC3CCCN3C)nc3c(F)c(-c4nc(N)cc(C)c4C(F)(F)F)c(Cl)cc23)C(C)C1 , result: 14.9

// viability, T/C lookup, compound = C[C@@H](NC(=O)c1ncnc(N)c1Cl)c1ncc(C(=O)Nc2cc(C(F)(F)F)c(Cl)cn2)s1 + C=CC(=O)N1CCN(c2nc(OCC3CCCN3C)nc3c(F)c(-c4nc(N)cc(C)c4C(F)(F)F)c(Cl)cc23)C(C)C1 , result: 32.1

// viability, T/C lookup, compound = Cc1nc(N2CCC3(CC2)COC(C)C3N)c(CO)nc1Sc1ccnc(N)c1Cl (configuration not stated) + C=CC(=O)N1CCN(c2nc(OCC3CCCN3C)nc3c(F)c(-c4nc(N)cc(C)c4C(F)(F)F)c(Cl)cc23)C(C)C1 , result: 15.9

// viability, T/C lookup, compound = CC(Nc1ccc2c(c1)OCCn1cc(N3C(=O)OCC3C(F)F)nc1-2)C(N)=O (configuration not stated) + C#Cc1c(F)ccc2cc(O)cc(-c3ncc4c(N5CC6CCC(C5)N6)nc(OCC56CCCN5CC(F)C6)nc4c3F)c12 , result: 13.6

// viability, T/C lookup, compound = CCC(CC)c1cc(NC2CCC(N)C2)n2nccc2n1 (configuration not stated) + C=CC(=O)N1CCN(c2nc(OCC3CCCN3C)nc3c(F)c(-c4nc(N)cc(C)c4C(F)(F)F)c(Cl)cc23)C(C)C1 , result: 9.75

====

- System: 422866-222-R5-J1-PDC complex spheroids viability
- assay_details: Anticancer human tumor 422866-222-R5-J1-PDC cell line growth inhibition [RAS];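 further: spheroids exposed to compounds for 7 days; 100% = DMSO vehicle control viability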
- test_conditions: second compound 0.3 µM; first compound 0.1 µM; active compounds read low
- Description: RAS pathway inhibitors in Combinations in Complex Spheroids A high-throughput screen of multi-cell type tumor spheroids was designed to identify active combinations of RAS pathway inhibitors and targeted small molecules. Complex spheroids include a stromal component modeled by human endothelial cells (HUVEC) and fibroblasts modeled by human mesenchymal stem cells (MSCs). […] Compounds. […] If the clinical Cmax for an agent had not been determined, the highest concentration tested was 10 microM. […]
Quick list: viability, T/C per entry.
The response must be a number in % with no trailing unit.

CC1(O)CCCC1n1c(=O)c(C(F)F)cc2cnc(NC3CCN(S(C)(=O)=O)CC3)nc21 (centres undefined) + CCn1c(-c2cccnc2C(C)OC)c2c3cc(ccc31)N1CCOC(CC(NC(=O)C(C(C)C)N(C)C(=O)C3(F)CCN(C(=O)C#CC(C)(C)N(C)C)CC3)C(=O)N3CCCC(N3)C(=O)OCC(C)(C)C2)C1    19.8
CC(C)NCC(C(=O)N1CCN(c2ncnc3c2C(C)CC3O)CC1)c1ccc(Cl)cc1 (centres undefined) + CCn1c(-c2cc(N3CCN(C)CC3)cnc2C(C)OC)c2c3cc(ccc31)-c1csc(n1)CC(NC(=O)C1CC1C)C(=O)N1CCCC(N1)C(=O)OCC(C)(C)C2    19.6
NC1c2ccccc2OC12CCN(c1cnc3c(N4CCCc5ncccc54)n[nH]c3n1)CC2 (centres undefined) + CCn1c(-c2cc(N3CCN(C)CC3)cnc2C(C)OC)c2c3cc(ccc31)-c1csc(n1)CC(NC(=O)C1CC1C)C(=O)N1CCCC(N1)C(=O)OCC(C)(C)C2    19

Here is another molecule to look at.
// viability, T/C lookup, molecule = O=C(c1ccc(F)c(F)c1Nc1ccc(I)cc1F)N1CC(O)([C@@H]2CCCCN2)C1 + CCn1c(-c2cccnc2C(C)OC)c2c3cc(ccc31)N1CCOC(CC(NC(=O)C(C(C)C)N(C)C(=O)C3(F)CCN(C(=O)C#CC(C)(C)N(C)C)CC3)C(=O)N3CCCC(N3)C(=O)OCC(C)(C)C2)C1 , result: 9.97
